B1: EHEE_rd2_0191 (parent)
chain: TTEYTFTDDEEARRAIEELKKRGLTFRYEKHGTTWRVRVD

# Variants of: B1
# Method: folding stability dG (cDNA display proteolysis); higher = more stable
# Assay context: PBS, room temperature
Observed property: folding stability dG (kJ/mol)

{"Biopolymer sequence": "TTEYEFTDDEEARRAIEELKKRGLTFRYEKHGTTWRVRVD [T5E]", "Observed property": "folding stability dG", "Unit abbrev": "kJ/mol", "Recorded measurement": 7.49}
{"Biopolymer sequence": "TTEYTFTDDEEARRAIEELKKRGLTFRYEKHGTTFRVRVD [W35F]", "Observed property": "folding stability dG", "Unit abbrev": "kJ/mol", "Recorded measurement": 3.72}
{"Biopolymer sequence": "TTEYTFTDDEEARRAIEELMKRGLTFRYEKHGTTWRVRVD [K20M]", "Observed property": "folding stability dG", "Unit abbrev": "kJ/mol", "Recorded measurement": 9.01}
{"Biopolymer sequence": "TTEYTFTDDEEARRIIEELKKRGLTFRYEKHGTTWRVRVD [A15I]", "Observed property": "folding stability dG", "Unit abbrev": "kJ/mol", "Recorded measurement": 8.46}
{"Biopolymer sequence": "TTEYKFTDDEEARRAIEELKKRGLTFRYEKHGTTWRVRVD [T5K]", "Observed property": "folding stability dG", "Unit abbrev": "kJ/mol", "Recorded measurement": 5.46}
{"Biopolymer sequence": "TTEYTFTWDEEARRAIEELKKRGLTFRYEKHGTTWRVRVD [D8W]", "Observed property": "folding stability dG", "Unit abbrev": "kJ/mol", "Recorded measurement": 2.72}
{"Biopolymer sequence": "TTEYTFTDDEEARRAIEELKKRGLTFRREKHGTTWRVRVD [Y28R]", "Observed property": "folding stability dG", "Unit abbrev": "kJ/mol", "Recorded measurement": -2.65}
{"Biopolymer sequence": "TTEYAFTDDEEARRAIEELKKRGLTFRYEKHGTTWRVRVD [T5A]", "Observed property": "folding stability dG", "Unit abbrev": "kJ/mol", "Recorded measurement": 5.15}
{"Biopolymer sequence": "TTEYTFTKDEEARRAIEELKKRGLTFRYEKHGTTWRVRVD [D8K]", "Observed property": "folding stability dG", "Unit abbrev": "kJ/mol", "Recorded measurement": 5.73}
{"Biopolymer sequence": "TTEYTFTDDEEARRAIKELKKRGLTFRYEKHGTTWRVRVD [E17K]", "Observed property": "folding stability dG", "Unit abbrev": "kJ/mol", "Recorded measurement": 8.38}
{"Biopolymer sequence": "TTEYTFTDDEEARRAIEELKKRGLTFRYEKHGHTWRVRVD [T33H]", "Observed property": "folding stability dG", "Unit abbrev": "kJ/mol", "Recorded measurement": 8.4}
{"Biopolymer sequence": "TTEYTFTDDEEARRAIEELKKRGQTFRYEKHGTTWRVRVD [L24Q]", "Observed property": "folding stability dG", "Unit abbrev": "kJ/mol", "Recorded measurement": 5.32}
{"Biopolymer sequence": "TTEYTFTDDEEARRAIEELKKRGLVFRYEKHGTTWRVRVD [T25V]", "Observed property": "folding stability dG", "Unit abbrev": "kJ/mol", "Recorded measurement": 8.68}
{"Biopolymer sequence": "TTEYTFGDDEEARRAIEELKKRGLTFRYEKHGTTWRVRVD [T7G]", "Observed property": "folding stability dG", "Unit abbrev": "kJ/mol", "Recorded measurement": 5.72}
{"Biopolymer sequence": "TTEYTFTDDEEAQRAIEELKKRGLTFRYEKHGTTWRVRVD [R13Q]", "Observed property": "folding stability dG", "Unit abbrev": "kJ/mol", "Recorded measurement": 8.1}
{"Biopolymer sequence": "TTEYTFTHDEEARRAIEELKKRGLTFRYEKHGTTWRVRVD [D8H]", "Observed property": "folding stability dG", "Unit abbrev": "kJ/mol", "Recorded measurement": 5.54}
{"Biopolymer sequence": "TTEYTFTDDEEARRAIEELKKRGLTFRVEKHGTTWRVRVD [Y28V]", "Observed property": "folding stability dG", "Unit abbrev": "kJ/mol", "Recorded measurement": 13.5}
{"Biopolymer sequence": "TTGYTFTDDEEARRAIEELKKRGLTFRYEKHGTTWRVRVD [E3G]", "Observed property": "folding stability dG", "Unit abbrev": "kJ/mol", "Recorded measurement": 3.03}
{"Biopolymer sequence": "TTEYTFTDDEEARRAIEWLKKRGLTFRYEKHGTTWRVRVD [E18W]", "Observed property": "folding stability dG", "Unit abbrev": "kJ/mol", "Recorded measurement": 11.2}
{"Biopolymer sequence": "TTEYTFTDKEEARRAIEELKKRGLTFRYEKHGTTWRVRVD [D9K]", "Observed property": "folding stability dG", "Unit abbrev": "kJ/mol", "Recorded measurement": 7.42}
{"Biopolymer sequence": "TTEYTFTDDEEARRAIEELEKRGLTFRYEKHGTTWRVRVD [K20E]", "Observed property": "folding stability dG", "Unit abbrev": "kJ/mol", "Recorded measurement": 7.79}
{"Biopolymer sequence": "HTEYTFTDDEEARRAIEELKKRGLTFRYEKHGTTWRVRVD [T1H]", "Observed property": "folding stability dG", "Unit abbrev": "kJ/mol", "Recorded measurement": 8.79}
{"Biopolymer sequence": "TTEYTFTDDEEARRAIEELKKRGLTFRYEKHGTTWRVRVT [D40T]", "Observed property": "folding stability dG", "Unit abbrev": "kJ/mol", "Recorded measurement": 9.95}
{"Biopolymer sequence": "PTEYTFTDDEEARRAIEELKKRGLTFRYEKHGTTWRVRVD [T1P]", "Observed property": "folding stability dG", "Unit abbrev": "kJ/mol", "Recorded measurement": 9}
{"Biopolymer sequence": "TTEYTFTDDEEARRAIEELKKRRLTFRYEKHGTTWRVRVD [G23R]", "Observed property": "folding stability dG", "Unit abbrev": "kJ/mol", "Recorded measurement": 4.95}
{"Biopolymer sequence": "TTEYTFTLDEEARRAIEELKKRGLTFRYEKHGTTWRVRVD [D8L]", "Observed property": "folding stability dG", "Unit abbrev": "kJ/mol", "Recorded measurement": 4.51}
{"Biopolymer sequence": "TTEYTFTDDEEARRAIEELKKRGLYFRYEKHGTTWRVRVD [T25Y]", "Observed property": "folding stability dG", "Unit abbrev": "kJ/mol", "Recorded measurement": 8.65}
{"Biopolymer sequence": "TTEYTFTDDEEARRAIEELKKRGLTFRYEKIGTTWRVRVD [H31I]", "Observed property": "folding stability dG", "Unit abbrev": "kJ/mol", "Recorded measurement": 11.8}
{"Biopolymer sequence": "TTEYTFTDAEEARRAIEELKKRGLTFRYEKHGTTWRVRVD [D9A]", "Observed property": "folding stability dG", "Unit abbrev": "kJ/mol", "Recorded measurement": 9.01}
{"Biopolymer sequence": "TTEYTFTDDEEARRAIENLKKRGLTFRYEKHGTTWRVRVD [E18N]", "Observed property": "folding stability dG", "Unit abbrev": "kJ/mol", "Recorded measurement": 7.96}
{"Biopolymer sequence": "TTEYTFTDDEEARRAIEELKKRGLTFRYEKHGMTWRVRVD [T33M]", "Observed property": "folding stability dG", "Unit abbrev": "kJ/mol", "Recorded measurement": 7.95}
{"Biopolymer sequence": "TTEYTFTDDEEARRHIEELKKRGLTFRYEKHGTTWRVRVD [A15H]", "Observed property": "folding stability dG", "Unit abbrev": "kJ/mol", "Recorded measurement": 7.23}
{"Biopolymer sequence": "TTEYTFTDDEEARRAIEELKKRGLTFRYEWHGTTWRVRVD [K30W]", "Observed property": "folding stability dG", "Unit abbrev": "kJ/mol", "Recorded measurement": 3.43}
{"Biopolymer sequence": "TTEYTFTDDEEARRAIEELKKRALTFRYEKHGTTWRVRVD [G23A]", "Observed property": "folding stability dG", "Unit abbrev": "kJ/mol", "Recorded measurement": 3.18}
{"Biopolymer sequence": "TTEYTFTDDEEARRAIEELKKRGLTFRYEKHGTTWRVRSD [V39S]", "Observed property": "folding stability dG", "Unit abbrev": "kJ/mol", "Recorded measurement": -1.32}
{"Biopolymer sequence": "TTEYTFTDDEEARRAISELKKRGLTFRYEKHGTTWRVRVD [E17S]", "Observed property": "folding stability dG", "Unit abbrev": "kJ/mol", "Recorded measurement": 8.23}
{"Biopolymer sequence": "TTEYTFTDDEEARRAIEELKKRGLTFRKEKHGTTWRVRVD [Y28K]", "Observed property": "folding stability dG", "Unit abbrev": "kJ/mol", "Recorded measurement": 1.95}
{"Biopolymer sequence": "TTEYTFTTDEEARRAIEELKKRGLTFRYEKHGTTWRVRVD [D8T]", "Observed property": "folding stability dG", "Unit abbrev": "kJ/mol", "Recorded measurement": 9.58}
{"Biopolymer sequence": "TTEYTFTDDEEARRAIEEAKKRGLTFRYEKHGTTWRVRVD [L19A]", "Observed property": "folding stability dG", "Unit abbrev": "kJ/mol", "Recorded measurement": 3.48}
